Assayed system: human MCP-1 binding to THP-1 cells (Homo sapiens, UniProt P41597)
Construct: endogenous in cells; host or cells: THP-1 (whole cells)
Sequence (P41597 1-360 isoform P41597-2): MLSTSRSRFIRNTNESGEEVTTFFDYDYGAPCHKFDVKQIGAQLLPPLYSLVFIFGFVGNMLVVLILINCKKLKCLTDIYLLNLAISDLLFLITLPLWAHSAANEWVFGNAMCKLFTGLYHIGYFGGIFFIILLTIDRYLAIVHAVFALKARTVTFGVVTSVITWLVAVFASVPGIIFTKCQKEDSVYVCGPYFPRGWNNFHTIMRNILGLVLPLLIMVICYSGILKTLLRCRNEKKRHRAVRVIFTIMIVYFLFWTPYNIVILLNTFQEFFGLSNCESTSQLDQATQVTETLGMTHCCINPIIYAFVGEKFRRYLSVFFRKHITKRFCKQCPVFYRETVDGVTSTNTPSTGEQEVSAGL
Assay explanation: Inhibitory activity against binding of [125I]-labeled human MCP-1 to THP-1 cells (method 2)
Measurement conditions: concentration of 1 μM
Property measured: inhibition at 1 µM

Challenge: May I ask what inhibition at 1 µM has been recorded for `Nc1cc(F)c(F)cc1C(=O)NCC(=O)NCC1CCN(c2ccc3nonc3c2)CC1` ?
Response given: 20 to 50%

Challenge: Same read-out for `Cc1noc(C)c1N1CCC(CNC(=O)CNC(=O)c2cc(F)c(F)cc2N)CC1` ?
Response given: 20 to 50%

Challenge: Same read-out for `Nc1ccc(Cl)cc1C(=O)NCC(=O)N[C@@H]1CCN(Cc2ccc(Cl)cc2)C1` ?
Response given: 50 to 80%

Challenge: Same read-out for `COc1ncc(CN2CC[C@@H](NC(=O)CNC(=O)c3cc(C(F)(F)F)ccc3N)C2)c(OC)n1` ?
Response given: 50 to 80%
